# Test system: SF-295 CNS
# assay text: NCI-60 one-dose screen, 48 h
# test parameters: 10 µM unless noted
This is part of a sample that, as a whole, favours compounds with a hit. Of some 83,000 tested, about 20% had one in any assay. Active and inactive are the calls of the source. How the source made its calls: active means growth percent below 10; inactive means the rest.
Assign a class; possible classes are t for active, f for inactive

Each compound tested received a call. Report the one for O=S(=O)(c1ccc(NCSc2nc3ccccc3s2)cc1)c1ccc(NCSc2nc3ccccc3s2)cc1 .
f

Each compound tested received a call. Report the one for Fc1ccc(/C=C/c2cc(/C=C/c3ccc(F)cc3)n(-c3cc(F)cc(F)c3)n2)cc1 .
f

Each compound tested received a call. Report the one for CCOC(=O)c1c(C)nc2c(c1N)C(=O)C(=O)N2CCc1ccc(OC)c(OC)c1 .
f

Each compound tested received a call. Report the one for COc1cc2c(c(OC)c1OC)C(=O)CC(c1cccc(C(=O)Nc3ccc(Br)cc3)c1)O2 (stereo not given) .
f

Each compound tested received a call. Report the one for O=C(/C=C\c1ccc(O)c(O)c1)c1ccccc1O .
f

Each compound tested received a call. Report the one for CN1C(=O)N(C)C2C1NN=c1s/c(=C\c3ccc(F)cc3)c(=O)n12 (stereo not given) .
f

Each compound tested received a call. Report the one for c1ccc2cc(Cn3cc[n+](Cc4ccc5ccccc5c4)c3)ccc2c1 .
f

Each compound tested received a call. Report the one for N#CSCc1cc(Cl)c(CSC#N)cc1Cl .
f

Each compound tested received a call. Report the one for CCOC(=O)c1c(C)n2c(=O)cc(C)c3c(OC(C)=O)c(OC(C)=O)cc1c32 .
f

Each compound tested received a call. Report the one for O=C1CC2C=CCN2C=C1NC(=O)c1ccccc1 (stereo not given) .
f

Each compound tested received a call. Report the one for c1ccc(Cn2cc3c(c2)-c2nc(Nc4ccccc4)ncc2CC3)cc1 .
f

Each compound tested received a call. Report the one for Cn1ccnc1C(=O)/C=C/c1ccc(CC(=O)Nc2cc(F)c(F)c(F)c2)cc1 .
f

Each compound tested received a call. Report the one for c1ccc(-c2nc(N3CCNCC3)c3oc(-c4ccccc4)nc3n2)cc1 .
t

Each compound tested received a call. Report the one for COc1cc(C(=O)c2c(-c3ccccc3)oc3ccccc23)cc(OC)c1O .
f

Each compound tested received a call. Report the one for CCNCCNc1c(C)c(-c2ccc(C(F)(F)F)cc2)c(C#N)c2nc3ccccc3n12 .
f

Each compound tested received a call. Report the one for CCCCCCCCNc1ncnc2c1ncn2Cc1nnc2c3ccccc3c(Cl)nn12 .
f

Each compound tested received a call. Report the one for C/C=C(/C)C(=O)O[C@@H]1CC(C)(C)CC2C34OC(=O)[C@@]21CC[C@@]3(C)[C@]1(C)CCC2C(C)(C)C(=O)CC[C@]2(C)C1C[C@@H]4O (stereo not given in full) .
f

Each compound tested received a call. Report the one for COc1cc(OC)cc(C(=O)Nc2cnc(Nc3ccc(N4CCOCC4)nc3)nc2Oc2ccc(C(F)(F)F)cc2)c1 .
f

Each compound tested received a call. Report the one for CCN1C(=O)N(CC)C2C1NN=c1s/c(=C\c3ccc([N+](=O)[O-])cc3)c(=O)n12 (stereo not given) .
f

Each compound tested received a call. Report the one for O=C(Nc1ccc2c(c1)-c1ccccc1C2)C1CC(=O)N(c2ccc3c(c2)OCO3)C1 (stereo not given) .
f

Hey, just so you know, these numbers are from PubChem BioAssay (NCI).
